All figures here come from PubChem BioAssay (NCI).

Experiment: NCI Yeast Anticancer Drug Screen. Data for the mec2-1 strain (AID 157)
Conditions: S. cerevisiae mec2-1 strain, at 50.0 µM (retest, dose inferred, filed as 5.0), hits give high values
Compounds without any hit were thinned out: in the full panel of roughly 79,000, 15% have a hit.
Let's look at some compounds and their measured growth inhibition.
Field: numeric (%). Do not append units.

Examples with their reported growth inhibition follow.
Compound | Unit Of Measure | growth inhibition
CCc1oc2ccccc2c1C(=O)c1cc(Br)c(O)c(Br)c1 | % | 100
O=C(CCl)N(c1ccccc1)c1ccccc1 | % | 59
CCOC(=O)C1(C)CCCC1N (configuration not stated) | % | 93

Quick one: growth inhibition for "CC(C)c1ccc(Nc2n[nH]c(=S)s2)cc1" ?
79

Could you tell me which growth inhibition is on file for "C=CC(=O)OCCOCc1ccccc1" ?
12

Quick one: growth inhibition of C=C1C(=O)C2=CC1CCC(=O)C1(C)CCC(OC(C)=O)C(C)(C)C1CC2O (configuration not stated) ?
70

Need growth inhibition of "COc1cc(/C=C/c2ccnc3ccccc23)cc(OC)c1OC" , thanks.
68

Look up growth inhibition for this compound: CC12CCC(O)CC1=CCC1C2CCC2(C)C3=NN=CC3CC12 (configuration not stated)
100

Fill in the blank: the reported growth inhibition of C=C(CO)C(=O)OC1CC(=C)C2CC(O)C(C)C2C2OC(=O)C(=C)C12 (configuration not stated) is ____.
98

For the compound shown here, "Cc1cccc(N=NC(C#N)C#N)c1" , give the reported growth inhibition.
96

Return reported growth inhibition; argument: "COc1cccc(NC(=O)c2c(SC)n[nH]c2N)c1"
98

Given "CC(=O)c1ccc2c(c1)CCc1ccccc1-2" , state its recorded growth inhibition.
49

----------
Assay: NCI Yeast Anticancer Drug Screen. Data for the mec2-1 strain (AID 157)
Details: S. cerevisiae mec2-1 strain, at 5.0 µM (retest, dose inferred, filed as 0.5), hits give high values
The panel holds about 79,000 compounds, 15% with a hit somewhere; the sample as a whole holds those more often. Activity calls are given as the source filed them. No stated cut-off is given here; in the data, active means growth inhibition above about 70%; inactive means the rest.
Endpoint Label: growth inhibition

The examples below pair each entry with its known result.
Compound | Endpoint Label | Result
CC(C)(C)c1ccc(O)c(Br)c1 | growth inhibition | -38% (inactive)
CC(C)N=C(N)/N=C(\N)Nc1ccc2ccc3ccccc3c2c1 | growth inhibition | -9% (inactive)
N#Cc1c2ccccc2nc2ccccc12 | growth inhibition | 21% (inactive)
O=C/C=C/c1ccc([N+](=O)[O-])cc1 | growth inhibition | 49% (inactive)
CCCCCCCCCC(=O)CCCCCCCCC | growth inhibition | 30% (inactive)
Cc1cc(=O)oc2cc(O)cc(O)c12 | growth inhibition | -4% (inactive)

Please examine the following record next.
Form field: reported growth inhibition of "O=C(NNc1ccccc1)OCc1ccccc1"
43% (inactive)

----------
Consider the following molecules and their measured growth inhibition readings.
Experiment: NCI Yeast Anticancer Drug Screen. Data for the mec2-1 strain (AID 157)
Details: S. cerevisiae mec2-1 strain, at 50.0 µM, hits give high values
The panel holds about 79,000 compounds, 15% with a hit somewhere; the sample as a whole holds those more often.
Dear colleague, please return just the value in %, with no unit written.

Reference set (3 entries):
Molecule | Unit Of Measure | growth inhibition
CCC1C[N+]2=C(c3cc(OC)c(OC)cc3CC2)c2c1cc1n2CCc2cc(OC)c(OC)cc2-1 (centres undefined) | % | 94.8
CCCCCCCCCCCC(=O)OC(C)C(=O)NCCCC (centres undefined) | % | 13.6
Nc1cccc2cccc([N+](=O)[O-])c12 | % | 11.4

What value of measured growth inhibition is listed for "CCN1/C(=C/C(C)=C/c2sc3ccc4ccccc4c3[n+]2CC)Sc2ccc3ccccc3c21" ?
82

----------
Test: NCI Yeast Anticancer Drug Screen. Data for the mec2-1 strain (AID 157)
Settings: S. cerevisiae mec2-1 strain, at 5.0 µM (retest, dose inferred, filed as 0.5), hits give high values
Compounds without any hit were thinned out: in the full panel of roughly 79,000, 15% have a hit.
Endpoint Label: growth inhibition (%)
Answer in %, number only, no unit symbol.

Answered cases to consult:
Molecule | Unit Of Measure | growth inhibition
O=C(CCl)N(c1ccccc1)c1ccccc1 | % | 3
[Cl-].[Rh+3].c1ccc(-c2ccnc3c2ccc2c(-c4ccccc4)ccnc23)cc1.c1ccc(-c2ccnc3c2ccc2c(-c4ccccc4)ccnc23)cc1.c1ccc(-c2ccnc3c2ccc2c(-c4ccccc4)ccnc23)cc1 | % | -15

Look up growth inhibition: COc1ccc(C(Cn2ccnc2)Sc2ccc(Cl)c(Cl)c2)cc1 (centres undefined)
60

Data request, read-out growth inhibition, for COc1ccc(C(OCC2OC(n3ccc(NC(=O)c4ccccc4)nc3=O)C(O)C2O)(c2ccccc2)c2ccccc2)cc1 (centres undefined)
23

Entry under review: "On1c(-c2ccccc2)nc2ccccc2c1=S" . Reported growth inhibition?
41

Give the measured growth inhibition of "COc1ccc(Nc2nc3ccc(C(F)(F)F)cc3nc2C(=O)O)cc1" .
13

Any idea what its growth inhibition is? The molecule is "Cc1cc2cccnc2c2ncccc12"
9

What value of growth inhibition has been recorded for this entry: "C/C(=N\NC(=S)N(C)C)c1ccccn1"
92

For "CN(Cc1ccccc1)c1ccc(SC#N)cc1" , what is its reported growth inhibition?
-4

Recorded growth inhibition of "COc1cc2c(c(OC)c1OC)-c1ccc(NCc3ccccc3)c(=O)cc1[C@@H](NC(C)=O)CC2" , please.
9

State the recorded growth inhibition for this entry: "CC(=O)Oc1ccc(OC(C)=O)c2c1CC=CC2"
-1

----------
Assay: NCI Yeast Anticancer Drug Screen. Data for the rad50 strain (AID 155);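 further: 0% = growth of vehicle-only cultures of the same strain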
Settings: S. cerevisiae rad50 strain growth inhibition; at 50.0 µM (retest, dose inferred, filed as 5.0); hits give high values
Method: Growth inhibition of yeast strains with defined genetic alterations is measured as a screen for potential anti-cancer activity. Selected strains with alterations in DNA damage repair or cell cycle control were exposed to compounds and growth inhibition was measured relative to vehicle treated controls. The strain used in this assay is rad50
Compounds without any hit were thinned out: in the full panel of roughly 79,000, 15% have a hit.
Below, each entry is listed with its recorded growth inhibition.
A number alone suffices; assume %.

Some solved cases for reference:
Compound | growth inhibition / %
CCSC(=O)c1ccc([N+](=O)[O-])o1 | 99
O=C(NOC(=O)c1ccccc1)c1ccccc1 | 98
CCCCCCCCCCCCSC(=N)N | 98
CCOC(=O)C1=C(C(=O)c2ccccc2)C(c2cccc([N+](=O)[O-])c2)C(C(=O)c2ccccc2)=C(C(=O)OCC)N1 | 60
Cc1ccccc1N=C(N)Nc1ccccc1C (tested in a mixture with another compound) | 15
O=C1/C(=C\c2ccc([N+](=O)[O-])cc2)CS(=O)(=O)C/C1=C/c1ccc([N+](=O)[O-])cc1 | 96

Fill blank: measured growth inhibition of the compound "N#CCc1cccc2ccccc12" is ____.
6

Looking for the measured growth inhibition of CC12CCC(O)CC1=CCC1C2CCC2(C)C3=NN=CC3CC12 (stereo unspecified) , can you help?
99

Fill in: growth inhibition of CC(/C=N/NC(N)=S)Cc1ccc(C(C)C)cc1 (stereo unspecified) is ___
82

What measured growth inhibition goes with "CCCCCCCCCCCCCCCC[N+](C)(C)C" ?
94

Fill in the blank: the reported growth inhibition of "O=[N+]([O-])C=C(c1ccccc1)c1ccccc1" is ____.
93

----------
Assay: NCI Yeast Anticancer Drug Screen. Data for the bub3 strain (AID 167)
Details: S. cerevisiae bub3 mutant strain, at 50.0 µM
About 79,000 compounds went through this panel and 15% of them were active in at least one assay; those are over-represented in the sample as a whole. The source made the active and inactive calls. No stated cut-off is given here; in the data, active means growth inhibition above about 70%; inactive means the rest.
Hi there, use one of these labels in your reply, thanks! Y (active), N (inactive)

Compound | Label
Fc1cccc(F)c1C1SCc2nc3cc4ccccc4cc3n21 (stereo unspecified) | Y
CCCCCCCCCCCCSC(=N)N | Y
N=C1C=C(N)C(=O)c2ccccc21 | Y
O=C(c1ccccc1)c1cc2ccccc2oc1=O | N

// return assay outcome for "COc1cc(N(CCC#N)CCC#N)ccc1/C(N=Nc1ccc(C(=O)O)cc1)=N/NC(=O)c1cc(Br)ccc1O"
N

Any idea what this test logged for "Cc1cc(I)nc2ccccc12" ?
N

What call does the record list for "CCOC(=O)/C(=C\c1ccc2ccccc2c1)P(=O)(OCC)OCC" ?
Y

Which outcome was assigned to "CC(C)(C)c1ccc(CCO)cc1" in this test?
N

Outcome logged for Cc1cc(O)c2c(c1)C(=O)C(c1c(C)cc3c(c1O)C(=O)C1OC1C3=O)=CC2=O (stereo unspecified) in this assay:
Y

What is the recorded call for this compound in the test? "CC1=CC[C@@H]2[C@@H](CC[C@@]2(C)O)C(C)(C)[C@H]1CC[C@@H]1[C@@]2(C)CCC(=O)C(C)(C)O[C@@H]2CC[C@]1(C)O"
N

Returns: the outcome recorded for "NC(=S)N/N=C/c1ncccc1O" in this assay.
N
